Below: compounds with pKi recorded for UniProtKB P31652 in separate published works.
pKi: −log10 of the molar value.
outcome measure: pKi

Consider the following illustrative entries.
Cc1nc2c(N3CCN([C@H]4CC[C@@H](c5c[nH]c6ccccc65)CC4)CC3)cccc2[nH]1 :: 7.21
CN(C)Cc1ccccc1Sc1ccc(F)cc1CO :: 8.10
Fc1ccc(C(Oc2ccc3c(c2)OCO3)C2CCCNC2)cc1 (stereo not given) :: 8.38
O=S(=O)(NCCCN1CCN(c2cccc(Cl)c2Cl)CC1)c1ccc2cccnc2c1 :: 6.65
COc1ccccc1-c1c2n(c(=O)n(CCCCN3CCC(c4c[nH]c5ccccc45)CC3)c1=O)CCCC2 :: 6.87

I = Fc1ccc2[nH]cc(CC3CCN(CCOc4cccc5c4OCCO5)CC3)c2c1
II = COc1ccc(-c2c(=O)n(CCCCN3CCC(c4c[nH]c5ccc(OC)cc45)CC3)c(=O)n3ccccc23)cc1
III = COc1ccc(-c2c(=O)n(CCCCN3CC=C(c4c[nH]c5ccc(Br)cc45)CC3)c(=O)n3ccccc23)cc1
IV = CNCc1cc(Br)ccc1Oc1ccc(SC)cc1
V = FC(F)(F)Oc1ccc(C2CN3CCCC3c3cc(OCCCN4CCCCC4)ccc32)cc1 (racemic)
Ask: Arrange these 5 compounds in increasing order of pKi. Provide the labels, sequenced as the question asks.
Reply: III, II, V, IV, I
(III: 6.49, II: 6.89, V: 7.96, IV: 9.30, I: 11.00)

----------
Below: compounds with Ki recorded for Sodium-dependent serotonin transporter (Rattus norvegicus) in separate published works.
outcome measure: Ki (nM)

COc1ccc(-c2c3n(c(=O)n(CCCCN4CCC(c5c(C)[nH]c6ccccc56)CC4)c2=O)CCCC3)cc1 :: 203
COc1cc(Cl)ccc1O[C@@H](c1ccccc1)[C@@H]1CNCCO1 :: 59
COc1ccc(C2CN(C)Cc3cc(OCCCN4CCN(C(C)C)CC4)ccc32)cc1 (centres undefined) :: 1.3
N#Cc1ccc2[nH]cc([C@H]3CC[C@H](N4CCCCC4)CC3)c2c1 :: 152
CCN(CC)CCCOc1ccc2c(c1)CN(C)CC2c1ccc(OC)cc1 (centres undefined) :: 2.2
c1ccc(C(Oc2cccc3ccccc23)C2CCNCC2)cc1 (stereo in doubt; (-)-15au) :: 28.1
N#Cc1ccc2[nH]cc([C@H]3CC[C@@H](NCc4ccccc4)CC3)c2c1 :: 7.5
COc1ccc(-c2c(=O)n(CCCCN3CCCC(c4c[nH]c5ccc(F)cc45)C3)c(=O)n3ccccc23)cc1 (centres undefined) :: 27

a = OC(CCN1CCN(c2cccc3c2OCO3)CC1)c1csc2ccc(F)cc12 (centres undefined)
b = O=C1COc2ccc(OC3CCN(CCOc4cccc5ccccc45)CC3)cc2N1
c = COc1ccc(C2CN(C)Cc3cc(OCCCN4CCOCC4)ccc32)cc1 (centres undefined)
Ask: Arrange these 3 compounds in increasing order of Ki. Provide the labels, sequenced as the question asks.
Reply: c, a, b
(c: 4.8 nM, a: 58 nM, b: 100 nM)

a = OC(CCN1CCN(c2cccc3c2OCCO3)CC1)c1csc2ccccc12 (centres undefined)
b = FC(F)(F)c1nc2c(N3CCN([C@H]4CC[C@H](c5c[nH]c6ccccc65)CC4)CC3)cccc2[nH]1
Ask: Hey, which is lower on measured Ki, a or b ? Give the chosen item's label as your response.
Reply: a
(a: 50 nM, b: 75 nM)

P = O=c1c(-c2ccccc2Cl)c2ccccn2c(=O)n1CCCCN1CCCC(c2c[nH]c3ccccc23)C1 (centres undefined)
Q = COc1ccc(C2CN(C)Cc3cc(OCCCN4CCC(CO)CC4)ccc32)cc1 (centres undefined)
R = Cc1ccccc1-c1c(=O)n(CCCCN2CC=C(c3c[nH]c4ccc(F)cc34)CC2)c(=O)n2ccccc12
Ask: Please give the order of these compounds when sorted by Ki, largest value leading. Provide the labels, sequenced as the question asks.
Reply: P, R, Q

I = COc1ccc2[nH]cc(C3CCN(CCCCn4c(=O)c(-c5ccccc5)c5ccccn5c4=O)CC3)c2c1
II = COc1ccc(-c2c3n(c(=O)n(CCCCN4CCC(c5c[nH]c6ccc(OC)cc56)CC4)c2=O)CCCC3)cc1
Ask: Hey, which is lower on measured Ki, I or II ? Give the chosen item's label as your response.
Reply: II
(II: 83.5 nM, I: 129 nM)
